Test system: C. auris AR Bank #382
ASSAY_PROCEDURE: MIC determination by in vitro antifungal assay
Format: cell-based, Candida auris
CONDITION_SET: C. auris AR Bank # 382 (Table 2B)
PARAMETER_MEASURED: MIC (μg/mL^−1)
Give the number; μg/mL^−1 is assumed, so skip it.

O=C(NNc1ccc(Cl)cc1)c1ccc(F)cn1: 7.8
COc1cccc(NNC(=O)c2ccc(F)cn2)c1: 0.49
O=C(NNc1ccc(Cl)cc1)c1cccc(F)n1: 7.8
O=C(NNc1ccc(F)cc1)c1ccc(F)cn1: 0.98
O=C(NNc1ccc(Cl)cc1)c1ncc(F)cc1F: 15.6
C[C@@H]1[C@H](O)[C@@H](C)/C=C/C=C/C=C/C=C/C=C/C=C/C=C/[C@H](O[C@@H]2O[C@H](C)[C@@H](O)[C@H](N)[C@@H]2O)C[C@@H]2O[C@](O)(C[C@@H](O)C[C@@H](O)[C@H](O)CC[C@@H](O)C[C@@H](O)CC(=O)O[C@H]1C)C[C@H](O)[C@H]2C(=O)O [AmB, amphotericin B, reference compound]: 0.98

Sample O=C(NNc1ccc(Cl)cc1)c1nc(F)ccc1F ; MIC observed: 7.8
